The values you see were collected from ChEMBL document CHEMBL2429862.

assay overview: Total clearance in Sprague-Dawley rat at 3 mg/kg, iv
study conditions: in vivo
value kind: clearance (mL/min/kg)
Answers are plain numbers, in mL/min/kg.

>  <chemical structure>
CCc1ccc(Cc2ccccc2N[C@@H]2O[C@H](CO)[C@@H](O)[C@H](O)[C@H]2O)cc1

>  <value kind>
clearance

>  <quantitative readout>
123

$$$$

Exam item: Param item = `CCc1ccc(Cc2cn([C@@H]3O[C@H](CO)[C@@H](O)[C@H](O)[C@H]3O)c3ccccc23)cc1` ; retrieve measured clearance.
Marked response: 5.83
